assay_overview: yeast display, Sf9 membrane polyspecificity reagent, FACS + sequencing; frameworks hold sequencing errors
quantity: polyreactivity (PSR sort gate)

| seq_text | result |
| --- | --- |
| QVQLVESGGGLVQAGGSLRLSCAASGLTFGRYAMGWYRQAPGKERELVAAISSGGSTYYADSVKGRFTISRDNAKNTVYLQMNSLKPEDTAVYYCAADYVGWYFVSGRDYWGQGTQVTVSS | low polyreactivity |
| QVQLVESGGGLVQAGGSLRLSCAASGSIFYRYAMGWYRQAPGKERELVADISSGGGTSYADSVKGRFTISRDNAKNTVYLQMNSLKPEDTAVYYCAAELYYWTYVRFDYWGQGTQVTVSS | low polyreactivity |
